Target: SIRT1 (Homo sapiens, UniProt Q96EB6)
Sequence (Q96EB6 whole entry): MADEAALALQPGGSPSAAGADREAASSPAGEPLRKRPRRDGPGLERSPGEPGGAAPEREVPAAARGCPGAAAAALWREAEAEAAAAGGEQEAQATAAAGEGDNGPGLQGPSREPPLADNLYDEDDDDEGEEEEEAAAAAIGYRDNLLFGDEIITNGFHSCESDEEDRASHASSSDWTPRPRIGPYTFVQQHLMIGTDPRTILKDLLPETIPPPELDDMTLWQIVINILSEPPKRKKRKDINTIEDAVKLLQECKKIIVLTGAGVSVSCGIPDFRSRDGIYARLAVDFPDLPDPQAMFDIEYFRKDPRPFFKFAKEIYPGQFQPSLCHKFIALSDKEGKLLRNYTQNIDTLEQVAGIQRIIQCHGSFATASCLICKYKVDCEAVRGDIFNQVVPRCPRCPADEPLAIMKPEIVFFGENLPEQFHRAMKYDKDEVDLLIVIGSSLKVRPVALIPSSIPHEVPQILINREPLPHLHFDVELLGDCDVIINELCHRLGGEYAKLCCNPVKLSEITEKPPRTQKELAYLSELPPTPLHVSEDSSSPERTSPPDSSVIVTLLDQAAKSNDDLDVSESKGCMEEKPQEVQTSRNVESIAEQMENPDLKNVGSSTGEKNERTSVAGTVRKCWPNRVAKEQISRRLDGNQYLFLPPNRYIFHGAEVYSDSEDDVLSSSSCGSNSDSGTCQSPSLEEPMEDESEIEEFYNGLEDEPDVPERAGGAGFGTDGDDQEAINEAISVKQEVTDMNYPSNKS
Assay: Trp mass spectrometry assay of SIRT1 activation
Type: biochemical
Settings: Trp peptide assay; EC1.5 = concentration that results in 150% activation of SIRT1

structure-smiles-string	TRP Activity (EC1.5)
O=C(Nc1cnccn1)N1c2nc(-c3ccc(OC(F)F)nc3)ccc2N2CC[C@H]1C2	B (B (EC1.5 1-25 μM))
CC(C)c1cc(-c2ccc3c(n2)N(C(=O)Nc2cnccn2)[C@H]2CCN3C2)ccn1	A (A (EC1.5<1 μM))
Cc1ccc(-c2ccc3c(n2)N(C(=O)Nc2cccc4cnccc24)[C@H]2CCN3C2)cn1	B (B (EC1.5 1-25 μM))
O=C(Nc1cc(OC[C@@H](O)CO)ccn1)N1c2nc(-c3cccc(C(F)(F)F)c3)ccc2N2CC[C@H]1C2	A (A (EC1.5<1 μM))
